- PROTOCOL TEXT: Cytotoxicity Determination
- Type: cell-based
- TEST PARAMETERS: human, HEp-2 cells, without addition of virus, CCK-8 readout, bins (Table 4: greater than 100 μM; Table 5: equal to or less than 100 μM and greater than 10 μM), read-out: 50% cytotoxicity concentration (CC50)
REPORTED PROPERTY: CC50 at 5 days

Reference set (3 entries):
COc1cc(C(=O)NCC(=O)c2ccc(OC)c(-c3ccc(F)c(Cl)c3)n2)ccc1OCCN(C)C [Compound 1314]; 10 to 100 µM
COc1cc(C(=O)NCC(=O)c2ccc3c(n2)-c2c(sc4c(F)cccc24)CO3)ccc1OCCO [Compound 2703]; 10 to 100 µM
COc1cc(C(=O)NCC(=O)c2ccc(OC)c(-c3n[nH]c4ccccc34)n2)ccc1OCCO [Compound 1346]; > 100 µM

input: Suppose we examine the compound COc1ccc(C(=O)NCC(=O)N/N=C(\C)c2csc3ncccc23)cc1OC [Compound 400-10] ; what CC50 at 5 days value has been reported?
output: > 100 µM

input: Suppose we examine the compound COc1ccc(C(=O)NCC(=O)c2cc(N(C)C)cc(-c3csc4c(F)cccc34)n2)cc1OC [Compound 1221] ; what CC50 at 5 days value has been reported?
output: > 100 µM

input: Suppose we examine the compound COc1cc(C(=O)NCC(=O)c2cccc(-c3csc4c(F)cccc34)n2)ccc1OCCn1ccnc1 [Compound 1246] ; what CC50 at 5 days value has been reported?
output: 10 to 100 µM

input: Suppose we examine the compound COc1ccc(C(=O)NCC(=O)N2CCCC(c3ccc(F)c4sccc34)=N2)cc1OC [Compound 3500] ; what CC50 at 5 days value has been reported?
output: > 100 µM

input: Suppose we examine the compound COc1ccc(CC(=O)NCC(=O)N/N=C(/C)c2csc3ccccc23)cc1OC [Compound 472] ; what CC50 at 5 days value has been reported?
output: 10 to 100 µM

input: Suppose we examine the compound COc1cc(C(=O)NCC(=O)c2ccc(OC)c(-c3csc4ccncc34)n2)ccc1OCCO [Compound 1621] ; what CC50 at 5 days value has been reported?
output: > 100 µM

input: Suppose we examine the compound COc1ccc(C(=O)NCC(=O)N/N=C(\C)c2cc(-c3ccccc3)sc2C)cc1OC [Compound 419] ; what CC50 at 5 days value has been reported?
output: 10 to 100 µM

* * *

CC50 at 5 days values, listed per item
- PROTOCOL TEXT: Cytotoxicity Determination
- Format: cell-based
- TEST PARAMETERS: human, HEp-2 cells, without addition of virus, CCK-8 readout, bins (Table 4: greater than 100 μM; Table 5: equal to or less than 100 μM and greater than 10 μM), read-out: 50% cytotoxicity concentration (CC50)

COc1ccc(C(=O)NCC(=O)N/N=C(/CC2CC2)c2csc3ccccc23)cc1OC; > 100 µM
COc1ccc(C(=O)N2CCCC2C(=O)c2ccc(OC)c(-c3csc4c(F)cccc34)n2)cc1OC (centres unmarked); 10 to 100 µM
COc1ccc(C(=O)NCC(=O)N/N=C(\C)c2c(C)sc3ccccc23)cc1OC; 10 to 100 µM

input: Suppose we examine the compound `COc1cc(C(=O)NCC(=O)c2cccc(-c3csc4c(F)cccc34)n2)ccc1OCC(N)=O` ; what CC50 at 5 days value has been reported?
output: 10 to 100 µM

input: Suppose we examine the compound `CCCC/C(=N\NC(=O)CNC(=O)c1ccc(OC)c(OC)c1)c1csc2ccccc12` ; what CC50 at 5 days value has been reported?
output: > 100 µM

Where these numbers come from: patent US9724351B2
